System: U2OS
Assay Notes: cell viability relative to DMSO; higher = less toxic
Setup Conditions: 72 h; 10000 nM
Provide the reported cell viability of each item.
Expressed in %, but write only the number.

## Task Which cell viability value belongs to Cc1ccc(-c2ccc(F)cc2COc2ccc(CCC(=O)O)cc2)cc1 [TUG-891] ?
## Result 99.2

## Task Okay, and Cc1cc(O)c(C(C)C)cc1Cl [chlorothymol] ?
## Result 102

## Task Similarly, O=P(O)(O)C(O)(Cc1cnc2ccccn12)P(=O)(O)O [minodronic-acid] ?
## Result 102

###

Tested on: Vero E6
Assay Notes: cell viability relative to DMSO; higher = less toxic
Setup Conditions: 72 h; 1 nM
Reported Metric: cell viability (%)
Numbers only; they are read as %.

## Task Need cell viability, item `O=C(Nc1cccc(C(F)(F)F)c1)Nc1ccc(Br)cc1-c1nnn[nH]1`
## Result 93.3

## Task Same lookup for `C#CCN[C@@H]1CCc2ccccc21` , please.
## Result 106

## Task Now the molecule NC(Cc1ccc(I)cc1)C(=O)O (stereo in doubt)
## Result 96.7

## Task Queued: `NCCc1ccccn1`
## Result 95.2

## Task Moving on to `N=C(N)NC(=N)NCCc1ccccc1`
## Result 98.8

###

Tested on: HepG2
Assay Notes: relative viability EC50 (midpoint between 100% and the lowest measured viability); higher = less toxic
Setup Conditions: 72 h
Reported Metric: relative viability EC50

## Task For the compound shown here, `O=C(O)CCn1c2c(c3ccccc31)C[C@H](NS(=O)(=O)c1ccc(F)cc1)CC2` , give the reported relative viability EC50.
## Result > 10 µM

## Task Now try `Cc1ccc(-c2ccc(F)cc2COc2ccc(CCC(=O)O)cc2)cc1` .
## Result > 10 µM

## Task What do we get for CC(C)CC(N)=O [isovaleramide] ?
## Result > 10 µM

## Task Again, but for `CO[C@@H](C(=O)N1Cc2[nH]nc(NC(=O)c3ccc(N4CCN(C)CC4)cc3)c2C1)c1ccccc1`
## Result 0.192 µM

###

Tested on: A549-ACE2
Assay Notes: drug-induced phospholipidosis relative to tamoxifen; higher = more phospholipidosis
Setup Conditions: 0.3 µM; 24 h
I'd be grateful if you could share measured drug-induced phospholipidosis for these entries.
Report the value in % with no unit label.

## Task May I ask what drug-induced phospholipidosis has been recorded for `O=C(CCCN1CCC2(CC1)C(=O)NCN2c1ccccc1)c1ccc(F)cc1` ?
## Result -1.11

## Task Same again, this time with `COc1cc2c(NC3CCN(C(C)C)CC3)nc(N3CCC(F)(F)CC3)nc2cc1OCCCN1CCCC1`
## Result 4.47

## Task Would you kindly repeat that for `CCn1c(-c2nonc2N)nc2cncc(C(=O)N3CC[C@H](N)C3)c21` ?
## Result 0.14

## Task Subsequent entry: `O=C(CCCN1CCC2(CC1)C(=O)N(Cc1cccc(F)c1)CN2c1ccccc1)c1ccc(F)cc1`
## Result 3.51

## Task Same thing, different molecule: CCN(CC)C(=S)S [ditiocarb-sodium-trihydrate]
## Result 0.51

## Task Entry to check: `Cc1ccc(NC(=O)c2ccc(CN3CCN(C)CC3)cc2)cc1Nc1nc(-c2cccnc2)cs1`
## Result -0.73

## Task Likewise for `COc1ccc(-c2cc3nccn3c(Nc3ncccc3C(N)=O)n2)cc1OC` ?
## Result -2.52

###

Test system: HepG2
Assay Notes: cell viability relative to DMSO; higher = less toxic
Setup Conditions: 72 h; 100 nM
Reported Metric: cell viability (%)
The reply should contain only the number, in %.

## Task Look up cell viability for this compound: `C[C@@H](CN1CC(=O)NC(=O)C1)N1CC(=O)NC(=O)C1`
## Result 98.2

## Task Repeat with `C[C@H](CCC(=O)NCCS(=O)(=O)O)[C@H]1CC[C@H]2[C@@H]3[C@@H](O)C[C@@H]4C[C@H](O)CC[C@]4(C)[C@H]3CC[C@]12C`
## Result 85.1

## Task What do you have for `COc1cc2c(NC3CCN(CC4CCCCC4)CC3)nc(N3CCCN(C(C)C)CC3)nc2cc1OCCCN1CCCCC1` ?
## Result 100

## Task Consider next the compound `FC(F)c1nc2ccccc2n1-c1nc(N2CCOCC2)nc(N2CCOCC2)n1` in the same way.
## Result 98.5

## Task Try this compound next: `O=C(c1ccc(C(=O)N2CCC(N3CCCC3)CC2)c(Nc2ccccc2)c1)N1CCC(N2CCCC2)CC1`
## Result 96.7

## Task Same read-out for `CN(C)[C@@H]1C(O)=C(C(N)=O)C(=O)[C@@]2(O)C(O)=C3C(=O)c4c(O)cccc4[C@@](C)(O)[C@H]3C[C@@H]12` ?
## Result 107

## Task And the next one, `O=C(CCCN1CCC2(CC1)C(=O)N(Cc1cccc(F)c1)CN2c1ccccc1)c1ccc(F)cc1` ?
## Result 95.9

## Task Next record, please: CCCCN(CCCC)CCC(O)c1cc2c(Cl)cc(Cl)cc2c2cc(C(F)(F)F)ccc12 (configuration not stated)
## Result 97.4

## Task Param item: `COC(=O)N[C@H](C(=O)N1CCC[C@H]1c1ncc(-c2ccc(-c3ccc(-c4cnc([C@@H]5CCCN5C(=O)[C@@H](NC(=O)OC)C(C)C)[nH]4)cc3)cc2)[nH]1)C(C)C`
## Result 112

## Task // same read-out, input: CC(C)(Oc1ccc(Cl)cc1)C(=O)N1CSCC1C(=O)O (configuration not stated) [timofibrate]
## Result 108

## Task For `COc1nccc(-c2c(-c3ccc(F)cc3)ncn2[C@H]2CC[C@H](O)CC2)n1` then?
## Result 103

## Task Please do the same for CC(C)[C@H](N)C(=O)OCC(CO)OCn1cnc2c(=O)nc(N)[nH]c21 (mixture of isomers) as well.
## Result 97.3

## Task Ok, now `Cc1c(-c2cnccn2)ssc1=S`
## Result 94.2

## Task Could you do the same for `O=C1NC(=O)/C(=C/c2ccc3c(c2)OC(F)(F)O3)S1` , please?
## Result 101

## Task Then what about the compound OCc1cc(C(O)CNCCCCCCOCCCCc2ccccc2)ccc1O (configuration not stated) ?
## Result 94

## Task How about this compound: `C=CC[C@]1(O)CC[C@H]2[C@@H]3CCC4=CC(=O)CCC4=C3C=C[C@@]21C`
## Result 93.6

## Task Ok, now `CCOc1cc2ncc(C#N)c(Nc3ccc(OCc4ccccn4)c(Cl)c3)c2cc1NC(=O)/C=C/CN(C)C`
## Result 88.2

## Task Entry to check: `CCCN(CCC)CCc1ccc(OC)c(OCCc2ccccc2)c1`
## Result 98.6

## Task Param item: `NC(=O)c1ccc(F)c2c1C[C@@H](N(C1CCC1)C1CCC1)CO2`
## Result 99.5

## Task Same thing, different compound: `CN1C[C@@H]2CN(c3ccc(-c4ccccc4)nn3)C[C@@H]2C1`
## Result 110

## Task CNCCC(Oc1ccccc1OC)c1ccccc1 (configuration not stated) , same question.
## Result 104

## Task Entry to check: NS(=O)(=O)c1cc2c(cc1C(F)(F)F)NCNS2(=O)=O [hydroflumethiazide]
## Result 114

## Task Can you check `CN[C@H](CNC(=O)N1CCC[C@@H]([C@@H](OCCNC(=O)OC)c2cccc(Cl)c2)C1)C[C@H]1CCCOC1` next?
## Result 92.5

## Task Repeat with `C[C@H](Nc1cc(-c2cnn(C)c2)cc(Nc2cnccn2)n1)c1ccc(F)cc1`
## Result 102

## Task Same for `CO[C@@H](C(=O)N1Cc2[nH]nc(NC(=O)c3ccc(N4CCN(C)CC4)cc3)c2C1)c1ccccc1`
## Result 78.3

## Task Request: `C=CC1=C(C)c2cc3[nH]c(cc4nc(cc5[nH]c(cc1n2)c(C)c5CCC(=O)O)C(CCC(=O)O)=C4C)c(C)c3C=C`
## Result 105

## Task Note, next up: CC(=O)N(CC(O)CN(C(C)=O)c1c(I)c(C(=O)NCC(O)CO)c(I)c(C(=O)NCC(O)CO)c1I)c1c(I)c(C(=O)NCC(O)CO)c(I)c(C(=O)NCC(O)CO)c1I (configuration not stated)
## Result 108

## Task Proceed to CC(=O)[C@H]1CC[C@H]2[C@@H]3CC=C4C[C@@H](OC(=O)CCC(=O)O)CC[C@]4(C)[C@H]3CC[C@]12C [pregnenolone-succinate]
## Result 94.4

## Task // query: `CNc1ccc([N+](=O)[O-])cc1-n1cnc(-c2ccc(C(F)(F)F)cc2)c1`
## Result 93.8

## Task Also `CCCCCCCCCCCCCCCCCCCCCC(=O)Nc1ccn([C@@H]2O[C@H](CO)[C@@H](O)[C@@H]2O)c(=O)n1` ?
## Result 100

## Task Moving on to the next compound: `Oc1cccc2cccnc12`
## Result 110

## Task Another compound to look at: `Cn1cnc2c1c(=O)[nH]c(=O)n2C`
## Result 99.3

This collection of values is drawn from the supplement of paper PMC13380429.
